Give measured ED50 for each item. Keep answers brief.
Target: Beta-secretase 1 (Homo sapiens, UniProt P56817)
Sequence (P56817 whole entry): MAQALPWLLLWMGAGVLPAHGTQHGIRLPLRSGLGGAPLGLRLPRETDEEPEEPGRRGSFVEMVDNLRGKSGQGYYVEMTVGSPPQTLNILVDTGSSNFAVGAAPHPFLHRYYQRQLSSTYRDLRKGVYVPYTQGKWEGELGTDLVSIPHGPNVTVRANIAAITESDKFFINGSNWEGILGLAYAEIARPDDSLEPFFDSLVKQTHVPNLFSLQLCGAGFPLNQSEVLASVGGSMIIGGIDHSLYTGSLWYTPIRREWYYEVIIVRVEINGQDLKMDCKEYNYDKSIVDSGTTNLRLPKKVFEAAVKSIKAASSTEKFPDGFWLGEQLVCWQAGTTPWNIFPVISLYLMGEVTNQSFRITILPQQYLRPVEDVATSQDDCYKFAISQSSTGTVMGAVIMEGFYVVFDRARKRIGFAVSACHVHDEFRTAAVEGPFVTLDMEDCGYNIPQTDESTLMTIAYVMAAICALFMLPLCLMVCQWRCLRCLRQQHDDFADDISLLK
Settings: HEK293
Description: Inhibition of BACE1 in HEK293 cells expressing swedish mutant APP FAD isoform
Numbers only, in nM.

Example cases with answers are listed next.
# molecule, ED50 (nM)
records = [
    ("CC(=O)N[C@@H](Cc1cc(F)cc(F)c1)[C@H](O)CNC1(c2cccc(-n3cccn3)c2)CC1", 230),
    ("CC(=O)N[C@@H](Cc1cc(F)cc(F)c1)[C@H](O)CNC(C)(C)c1cccc(C(C)(C)C)c1", 17),
]

For each of the molecules below, note its ED50.
1. CC(=O)N[C@@H](Cc1cc(F)cc(F)c1)[C@H](O)CNCc1cccc(C(C)(C)C)c1
2. CC(=O)N[C@@H](Cc1cc(F)cc(F)c1)[C@H](O)CNC1(c2cnn(CC(C)(C)C)c2)CC1
3. CC(=O)N[C@@H](Cc1cc(F)cc(F)c1)[C@H](O)CNC1(c2cccc(C3CCOC3)c2)CCOCC1 (stereo partly drawn)
4. CC(=O)N[C@@H](Cc1cc(F)cc(F)c1)[C@H](O)CN[C@]1(c2cccc(C(C)(C)C(F)F)c2)C[C@H]1C
5. CC(=O)N[C@@H](Cc1cc(F)cc(F)c1)[C@H](O)CNC1(c2cccc(C(C)(CF)CF)c2)CC1
6. CC(=O)N[C@@H](Cc1cc(F)cc(F)c1)[C@H](O)CNC1(c2cccc(C3CCOC3)c2)CC1 (stereo partly drawn)

[84, 54, 28, 130, 21, 97]
